Where these numbers come from: paper PMC12102759

B1: PEX5 peptide 108-123 (Peroxisomal targeting signal 1 receptor), 16-mer library wild type / PEX14 Pex14 (PEX14 PEX14, residues 16-84) (parent)
chain 1: GVADLALSENWAQEFL
chain 2: TPGSENVLPREPLIATAVKFLQNSRVRQSPLATRRAFLKKKGLTDEEIDMAFQQSGTAADEPSSLGPAT

Variants of: B1
Assay: proteomic peptide phage display deep mutational scan (ProP-PD DMS): M13 P8 16-mer library selected against immobilised GST-tagged bait for four days (rounds), NGS of the eluted pools per day and pseudo-replica
Conditions: with PEX14 Pex14 (PEX14 PEX14, residues 16-84); bait immobilised on MaxiSorp plates (10 µg), library pre-cleared on GST, 2 h binding at 4 °C, five washes; one round per day, days 1-4; value from days 2 and 3; scale: average fractional NGS count over selection days 2 and 3
Would you mind labelling by screen value? At or over 0.0005 is yes (1), under is no (0).

Exam item: decide whether the reported screen value for chain 1 S8D is at least 0.0005. no (0)

***
Exam item: decide whether the reported screen value for chain 1 A3H is at least 0.0005. no (0)

Exam item: decide whether the reported screen value for chain 1 L16V is at least 0.0005. yes (1)

Exam item: decide whether the reported screen value for chain 1 V2Q is at least 0.0005. no (0)

Exam item: decide whether the reported screen value for chain 1 E9Q is at least 0.0005. no (0)

Exam item: decide whether the reported screen value for chain 1 S8A is at least 0.0005. yes (1)
